Catalogue of EC50 readings, one per entry.
tested target: mGluR4 (Homo sapiens, UniProt Q14833)
Sequence (Q14833 33-912 limits assumed): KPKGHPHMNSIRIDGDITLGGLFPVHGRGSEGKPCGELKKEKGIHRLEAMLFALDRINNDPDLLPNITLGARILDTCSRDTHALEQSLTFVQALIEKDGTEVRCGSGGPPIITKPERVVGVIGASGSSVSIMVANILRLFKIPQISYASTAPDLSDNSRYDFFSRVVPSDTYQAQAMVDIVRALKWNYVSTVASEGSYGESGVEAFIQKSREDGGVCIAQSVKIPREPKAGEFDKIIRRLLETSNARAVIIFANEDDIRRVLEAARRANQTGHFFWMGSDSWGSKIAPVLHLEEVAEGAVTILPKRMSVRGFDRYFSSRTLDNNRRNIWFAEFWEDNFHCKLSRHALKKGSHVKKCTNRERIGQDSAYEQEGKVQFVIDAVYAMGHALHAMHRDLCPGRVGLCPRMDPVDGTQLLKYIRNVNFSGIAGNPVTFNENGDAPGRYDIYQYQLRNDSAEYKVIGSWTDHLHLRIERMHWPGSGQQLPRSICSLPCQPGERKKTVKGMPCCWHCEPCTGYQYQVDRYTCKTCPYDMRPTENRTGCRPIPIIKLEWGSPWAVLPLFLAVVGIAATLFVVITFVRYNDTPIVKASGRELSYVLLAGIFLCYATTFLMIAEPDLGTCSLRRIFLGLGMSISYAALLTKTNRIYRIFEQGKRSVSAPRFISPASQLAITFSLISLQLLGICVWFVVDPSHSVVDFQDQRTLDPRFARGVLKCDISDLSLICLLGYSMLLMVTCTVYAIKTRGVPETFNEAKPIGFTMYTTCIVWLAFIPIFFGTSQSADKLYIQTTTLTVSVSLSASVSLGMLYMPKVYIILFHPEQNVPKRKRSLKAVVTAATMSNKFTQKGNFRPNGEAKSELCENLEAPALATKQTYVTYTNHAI
assay info: mGlu4 PAM potentiation assay, CHO cells transfected with human mGluR4, Ca2+-sensitive dye fluorescence

compound: O=C(Nc1ccc2c(OCC3CCOC3)nccc2c1)c1ccc(Cl)cn1 (stereo not drawn)
tested target: mGluR4 (Homo sapiens, UniProt Q14833)
EC50 / nM: 615
//
compound: Nc1cccnc1C(=O)Nc1ccc2c(OCC3CCOCC3)nccc2c1
tested target: mGluR4 (Homo sapiens, UniProt Q14833)
EC50 / nM: 108
//
compound: O=C(Nc1cc(F)c2c(OCC3CCOC3)nccc2c1)c1ncccc1F (stereo not drawn)
tested target: mGluR4 (Homo sapiens, UniProt Q14833)
EC50 / nM: 312
//
compound: Nc1nccnc1C(=O)Nc1ccc2c(OCC3COCCO3)nccc2c1 (stereo not drawn)
tested target: mGluR4 (Homo sapiens, UniProt Q14833)
EC50 / nM: 334
//
compound: O=C(Nc1ccc2c(OC3CCOCC3)nccc2c1)c1ncccc1O
tested target: mGluR4 (Homo sapiens, UniProt Q14833)
EC50 / nM: 331
//
compound: Nc1cccnc1C(=O)Nc1ccc2c(OCC3CCOC3)nccc2c1 (stereo not drawn)
tested target: mGluR4 (Homo sapiens, UniProt Q14833)
EC50 / nM: 71.4
//
compound: Nc1cccnc1C(=O)Nc1ccc2c(OCC3CCOC3)ncc(F)c2c1 (stereo not drawn)
tested target: mGluR4 (Homo sapiens, UniProt Q14833)
EC50 / nM: 88.7
//
compound: O=C(Nc1ccc2c(OCC3COCCO3)ncc(F)c2c1)c1ncccc1O (stereo not drawn)
tested target: mGluR4 (Homo sapiens, UniProt Q14833)
EC50 / nM: 710
//
compound: Nc1cccnc1C(=O)Nc1ccc2c(OCC3CCCCO3)nccc2c1 (stereo not drawn)
tested target: mGluR4 (Homo sapiens, UniProt Q14833)
EC50 / nM: 242

====

tested target: mGluR4 (Homo sapiens, UniProt Q14833)
assay info: mGlu4 PAM potentiation assay, CHO cells transfected with human mGluR4, Ca2+-sensitive dye fluorescence
pEC50: −log10 of the molar value.
property measured: pEC50

compound: Cn1ccnc1C(=O)Nc1ccc2c(OCC3CCOC3)nccc2c1 (stereo not shown)
endpoint result: 6.09
//
compound: COCCOc1nccc2cc(NC(=O)c3ncccc3N)ccc12
endpoint result: 6.64
//
compound: CC1(C)CC(COc2nccc3cc(NC(=O)c4ccccn4)ccc23)CCO1 (stereo not shown)
endpoint result: 6.94
//
compound: CC1(C)CC(Oc2nccc3cc(NC(=O)c4ncccc4N)ccc23)CCO1 (stereo not shown)
endpoint result: 6.51
//
compound: CC1CC(Oc2nccc3cc(NC(=O)c4ncccc4O)ccc23)CCO1 (stereo not shown)
endpoint result: 6.35
//
compound: Cc1ccc(C(=O)Nc2ccc3c(OCC4CCOCC4)nccc3c2)nc1
endpoint result: 6.27
//
compound: O=C(Nc1ccc2c(OCC3CCOCC3)nccc2c1)c1cccc(F)n1
endpoint result: 7.04
//
compound: CC1(C)CC(Oc2nccc3cc(NC(=O)c4ncc(F)cc4F)cc(F)c23)CCO1 (stereo not shown)
endpoint result: 7.12
//
compound: O=C(Nc1ccc2c(OCc3cccnc3)nccc2c1)c1ccc(F)cn1
endpoint result: 6.64
//
compound: O=C(Nc1ccc2c(OCC3CCOC3)nccc2c1)c1cccc(Cl)n1 (stereo not shown)
endpoint result: 6.21
//
compound: O=C(Nc1cnc2c(OCC3CCOCC3)nccc2c1)c1ccc(F)cn1
endpoint result: 6.34
//
compound: Nc1cccnc1C(=O)Nc1ccc2c(OCC3CCOCC3)ncc(F)c2c1
endpoint result: 6.82
//
compound: O=C(Nc1cc(F)c2c(OCC3CCOCC3)nccc2c1)c1ncccc1F
endpoint result: 6.99
//
compound: O=C(Nc1ccc2c(OCc3ccncc3)nccc2c1)c1ccc(F)cn1
endpoint result: 7.00
//
compound: CC1CC(Oc2nccc3cc(NC(=O)c4ncccc4N)ccc23)CCO1 (stereo not shown)
endpoint result: 6.09
//
compound: Nc1cccnc1C(=O)Nc1cc(F)c2c(OCC3CCOC3)nccc2c1 (stereo not shown)
endpoint result: 7.32
//
compound: CC1(C)CC(COc2nccc3cc(NC(=O)c4ncccc4N)ccc23)CO1 (stereo not shown)
endpoint result: 6.18
//
compound: O=C(Nc1ccc2c(OCC3CCOC3)nccc2c1)c1ncccc1O (stereo not shown)
endpoint result: 7.25
//
compound: O=C(Nc1ccc2c(OCC3CCOC3)ncc(F)c2c1)c1ccccn1 (stereo not shown)
endpoint result: 7.08
//
compound: CC1CC(COc2nccc3cc(NC(=O)c4ncccc4O)ccc23)CCO1 (stereo not shown)
endpoint result: 6.52
//
compound: CO[C@@H](C)COc1nccc2cc(NC(=O)c3ccccn3)ccc12
endpoint result: 6.44
//
compound: CCOCCOc1nccc2cc(NC(=O)c3ncccc3N)ccc12
endpoint result: 6.45
//
compound: O=C(Nc1cc(F)c2c(OCC3COCCO3)nccc2c1)c1ccc(F)cn1 (stereo not shown)
endpoint result: 6.52
//
compound: Nc1cccnc1C(=O)Nc1ccc2c(OC3CCS(=O)(=O)C3)nccc2c1 (stereo not shown)
endpoint result: 6.20
//
compound: CC1CC(COc2nccc3cc(NC(=O)c4ncccc4N)ccc23)CCO1 (stereo not shown)
endpoint result: 6.87
//
compound: O=C(Nc1cc(F)c2c(OCC3CCOCC3)nccc2c1)c1ccc(F)cn1
endpoint result: 7.28
//
compound: O=C(Nc1ccc2c(OCC3CCOC3)nccc2c1)c1ccc(F)cn1 (stereo not shown)
endpoint result: 6.68
//
compound: CC1(C)COCCC1Nc1nccc2cc(NC(=O)c3ncccc3N)ccc12 (stereo not shown)
endpoint result: 6.04
//
compound: O=C(Nc1ccc2c(O[C@H]3CCOC3)nccc2c1)c1ncccc1O
endpoint result: 6.05
//
compound: CC1(C)CC(Oc2nccc3cc(NC(=O)c4ccccn4)cc(F)c23)CCO1 (stereo not shown)
endpoint result: 7.15
//
compound: Nc1nccnc1C(=O)Nc1ccc2c(OCC3CCOC3)nccc2c1 (stereo not shown)
endpoint result: 7.08
//
compound: Cc1ccoc1C(=O)Nc1ccc2c(OCC3CCOC3)nccc2c1 (stereo not shown)
endpoint result: 6.15
//
compound: O=C(Nc1ccc2c(OCC3CCOC3)nccc2c1)c1ncccc1Cl (stereo not shown)
endpoint result: 6.47
//
compound: CC1(C)CC(Oc2nccc3cc(NC(=O)c4ccccn4)ccc23)C(C)(C)O1 (stereo not shown)
endpoint result: 6.03
//
compound: O=C(Nc1ccc2c(Oc3ccncc3)nccc2c1)c1ccc(F)cn1
endpoint result: 6.22
//
compound: CO[C@H](C)COc1nccc2cc(NC(=O)c3ccccn3)ccc12
endpoint result: 6.78
//
compound: Nc1cccnc1C(=O)Nc1ccc2c(O[C@H]3CCOC3)ncc(F)c2c1
endpoint result: 6.31
